- Tested on: Cx43 HCs (Homo sapiens)
- Construct: expressed in transfected cells
- Sequence (P17302 whole entry): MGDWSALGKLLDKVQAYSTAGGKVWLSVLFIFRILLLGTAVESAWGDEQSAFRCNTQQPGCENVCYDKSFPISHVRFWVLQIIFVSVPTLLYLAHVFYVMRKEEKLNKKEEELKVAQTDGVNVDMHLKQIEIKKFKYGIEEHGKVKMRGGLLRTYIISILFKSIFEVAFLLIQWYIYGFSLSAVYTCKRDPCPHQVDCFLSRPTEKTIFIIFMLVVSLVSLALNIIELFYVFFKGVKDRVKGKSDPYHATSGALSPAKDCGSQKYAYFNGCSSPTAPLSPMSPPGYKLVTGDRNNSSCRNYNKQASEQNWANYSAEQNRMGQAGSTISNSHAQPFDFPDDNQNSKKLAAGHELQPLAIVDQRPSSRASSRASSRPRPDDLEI
- Method: Cx43-dependent growth complementation assay in E. coli LB2003
- Type: cell-based
- Experimental parameters: Table 7; read-out: Cx43 IC50
Collected pIC50 values appear next to each entry.
Field pIC50 (float): negative decimal logarithm of the concentration in molar.

INSERT INTO measurements (molecule, measured_parameter, recorded_measurement) VALUES
  ('NCC1O[C@H](OC2C(N)CC(N)C(OC3O[C@H](COc4ccc(Cl)cc4)C(O)C(N)[C@H]3O)[C@H]2O)C(O)C(O)[C@@H]1O (some centres unmarked)', 'pIC50', 5.05);

Request the reported pIC50 associated with NC1CC(N)C(O[C@H]2OC(CNC(=O)CCCc3ccc4ccc5cccc6ccc3c4c56)[C@@H](O)C(O)C2O)[C@H](O)C1OC1O[C@H](CO)C(O)C(N)[C@H]1O (some centres unmarked)
5.07

Fill in: pIC50 of CCCCCCCCCCCC(=O)NCC1O[C@H](OC2C(N)CC(N)C(OC3O[C@H](CO)C(O)C(N)[C@H]3O)[C@H]2O)C(O)C(O)[C@@H]1O (some centres unmarked) is ___
5.01

Reported pIC50, molecule Cc1ccc(OC[C@H]2OC(OC3C(N)CC(N)C(O[C@H]4OC(CN)[C@@H](O)C(O)C4O)[C@@H]3O)[C@H](O)C(N)C2O)cc1 (some centres unmarked) : ____
5.21

What does the record list as pIC50 for NC1CC(N)C(O[C@H]2OC(CNC(=O)c3ccccc3-c3c4ccc(=O)cc-4oc4ccc(O)cc34)[C@@H](O)C(O)C2O)[C@H](O)C1OC1O[C@H](CO)C(O)C(N)[C@H]1O (some centres unmarked) ?
5.05

###

- Tested on: Cx43 HCs (Homo sapiens)
- Construct: expressed in transfected cells
- Method: Cx43-dependent growth complementation assay in E. coli LB2003
- Assay type: cell-based
- Experimental parameters: K46 members, the 20th table; read-out: IC50 (μM) against Cx43
Please respond with label 1 when measured IC50 is strictly beneath 20 µM, and with label 0 in all other cases.

Completed entries (count: 2):
INSERT INTO assay_data (compound, tested_on, class_name) VALUES
  ('NCC1OC(OC2C(N)CC(N)C(OC3OC(COCc4cccc(-c5ccccc5)c4)C(OCc4cccc(-c5ccccc5)c4)C(N)C3O)C2O)C(O)C(O)C1O (stereo not shown)', 'Cx43 HCs (Homo sapiens)', 'label 1'),
  ('COc1ccc(COCC2OC(OC3C(N)CC(N)C(OC4OC(CN)C(O)C(O)C4O)C3O)C(O)C(N)C2OCc2ccc(OC)cc2)cc1 (stereo not shown)', 'Cx43 HCs (Homo sapiens)', 'label 1');

Criterion: IC50 strictly below 20 µM. Is it met by NC[C@H]1O[C@H](O[C@H]2[C@H](O)[C@@H](O[C@@H]3O[C@H](COCc4ccc(F)cc4)[C@@H](OCc4ccc(F)cc4)[C@H](N)[C@H]3O)[C@H](N)C[C@@H]2N)[C@H](O)[C@@H](O)[C@@H]1O ?
label 0

Regarding NCC1OC(OC2C(N)CC(N)C(OC3OC(COCc4cccc5ccccc45)C(OCc4cccc5ccccc45)C(N)C3O)C2O)C(O)C(O)C1O (stereo not shown) , kindly confirm whether its IC50 is beneath 20 µM.
label 1

Here's an entry: Cc1ccc(COCC2OC(OC3C(N)CC(N)C(OC4OC(CN)C(O)C(O)C4O)C3O)C(O)C(N)C2OCc2ccc(C)cc2)cc1 (stereo not shown) . Is its IC50 below 20 µM?
label 1

In the record for CCCCCCCCOC[C@H]1OC(O[C@@H]2C(N)CC(N)C(O[C@H]3OC(CN)[C@@H](O)[C@H](O)C3O)[C@@H]2O)[C@H](O)[C@H](N)C1OCCCCCCCC (stereo partly shown) , is IC50 less than 20 µM?
label 0

###

- Tested on: Cx43 HCs (Homo sapiens)
- Construct: expressed in transfected cells
- Method: Cx43-dependent growth complementation assay in E. coli LB2003
- Type: cell-based
- Experimental parameters: 15 μM; Table 6; read-out: Cx43 (% inhibition)
Entries and their inhibition at 15 µM

Returns the measured inhibition at 15 µM for the input compound. Input: NC1CC(N)C(O[C@H]2OC(CNC(=O)c3ccccc3-c3c4ccc(=O)cc-4oc4ccc(O)cc34)[C@@H](O)C(O)C2O)[C@H](O)C1OC1O[C@H](CO)C(O)C(N)[C@H]1O (stereo partly drawn)
> 50%

Any idea what inhibition at 15 µM was measured for NCC1O[C@H](OC2C(N)CC(N)C(OC3O[C@H](COc4ccc(Cl)cc4)C(O)C(N)[C@H]3O)[C@H]2O)C(O)C(O)[C@@H]1O (stereo partly drawn) ?
> 50%

Fill in: inhibition at 15 µM of CCCCCCCCCCCC(=O)NCC1O[C@H](OC2C(N)CC(N)C(OC3O[C@H](CO)C(O)C(N)[C@H]3O)[C@H]2O)C(O)C(O)[C@@H]1O (stereo partly drawn) is ___
> 50%

If you can, please state the reported inhibition at 15 µM value of Cc1ccc(OC[C@H]2OC(OC3C(N)CC(N)C(O[C@H]4OC(CN)[C@@H](O)C(O)C4O)[C@@H]3O)[C@H](O)C(N)C2O)cc1 (stereo partly drawn) .
> 50%

Fill blank: measured inhibition at 15 µM of the compound NC1CC(N)C(O[C@H]2OC(CNC(=O)CCCc3ccc4ccc5cccc6ccc3c4c56)[C@@H](O)C(O)C2O)[C@H](O)C1OC1O[C@H](CO)C(O)C(N)[C@H]1O (stereo partly drawn) is ____.
> 50%

Quick one: inhibition at 15 µM of CCCCCCCC(=O)NCC1O[C@H](OC2C(N)CC(N)C(OC3O[C@H](CO)C(O)C(N)[C@H]3O)[C@H]2O)C(O)C(O)[C@@H]1O (stereo partly drawn) ?
17%
